# Test system: DMS 273 small cell lung
# run_description: NCI tumour cell line growth inhibition, 48 h
measured_parameter: TGI

Use these answered entries as a reference point.
CCOC(=O)CC1=NC(=Nc2cc(Cl)ccc2Cl)SC1 = > 100 µM
O=C(CCC(=O)N/N=C/c1ccccc1O)N/N=C/c1ccccc1O = > 100 µM
O=C(CCc1ccccc1)On1nnc2ccccc2c1=O = > 100 µM
Cc1c2ccnc(-c3ccccc3)c2cc2c1[nH]c1ccccc12 = 4.06 µM
CC1=Nc2c([nH]c(=S)[nH]c2=O)NC(c2ccc(Cl)c(Cl)c2)C1 (stereo unspecified) = > 72.9 µM

# assay system DMS 273 small cell lung: give TGI of NC(=O)c1csc(CCCCCCc2nc(C(N)=O)cs2)n1
> 100 µM

# assay system DMS 273 small cell lung: give TGI of COc1ccc(/C(Cl)=C(\C=O)c2ccc(Br)cc2)cc1OC
> 100 µM

# assay system DMS 273 small cell lung: give TGI of CN(C)c1nc(N(C)C)n2nc(-c3ccccc3[N+](=O)[O-])nc2n1
> 100 µM
